# TARGET_OR_SYSTEM: SHP2-C SH2
# ASSAY_METHOD_TEXT: SH2 binding enrichment of the phosphorylated peptide, bacterial display (enrichment ratio); higher = better substrate or ligand; peptides without Tyr show the background
ENDPOINT_NAME: SH2 binding enrichment

Consider the following illustrative entries.
[
  {
    "ORDERED_RESIDUES": "LKFAIYFEARE [LAMA2_Y1258_YF]",
    "SH2 binding enrichment": 0.756
  },
  {
    "ORDERED_RESIDUES": "ARVANYHRDGP [CAT_Y386_Q387H]",
    "SH2 binding enrichment": 0.769
  },
  {
    "ORDERED_RESIDUES": "VNRSGYTLIRK [ATP6V0A2_Y688]",
    "SH2 binding enrichment": 0.814
  }
]

A. KPGLVYNKVNP [SPRED3_Y72]
B. YQLPYYNMVPS [BMPR1A_Y458]
Higher SH2 binding enrichment: A or B ? Write the label of whichever entry you select.
B
(B: 1.73, A: 0.788)

1. CTTVHYNYMCN [TP53_Y234_I232V]
2. GGRKGYGGFSR [RECQL5_Y478_D480G]
3. QEIATYRRQLE [KRT14_Y415_L418Q]
4. TKDTFHKQPMF [GBA_Y451_Y451H]
Highest SH2 binding enrichment first, then in falling order down to the smallest. Your answer should be the labels, listed in the requested order.
1, 4, 2, 3
(1: 3.24, 4: 0.884, 2: 0.571, 3: 0.332)

a. LIHTKCPQLLP [AHCY_Y143_Y143C]
b. RRKRAYVEIEF [MAK16_Y282_Q277R_YF]
// select label with min value of measured SH2 binding enrichment from [ a , b ] Return value: the label identifying the chosen record.
b
(b: 0.459, a: 0.762)

###

# TARGET_OR_SYSTEM: c-Src SH2
# ASSAY_METHOD_TEXT: SH2 binding enrichment of the phosphorylated peptide, bacterial display (enrichment ratio); higher = better substrate or ligand; peptides without Tyr show the background
ENDPOINT_NAME: SH2 binding enrichment

[
  {
    "ORDERED_RESIDUES": "HNLDFYKKTTN [FGFR3_Y648_YF]",
    "OBS_VALUE": 0.5
  },
  {
    "ORDERED_RESIDUES": "NPQKPYFIRLF [WAS_Y83_S82P_YF]",
    "OBS_VALUE": 0.504
  },
  {
    "ORDERED_RESIDUES": "KLQKYYRQNPD [EHHADH_Y683]",
    "OBS_VALUE": 0.503
  }
]

###

# TARGET_OR_SYSTEM: FGFR3 (UniProt P22607)
# Sequence (P22607 whole entry, looked up): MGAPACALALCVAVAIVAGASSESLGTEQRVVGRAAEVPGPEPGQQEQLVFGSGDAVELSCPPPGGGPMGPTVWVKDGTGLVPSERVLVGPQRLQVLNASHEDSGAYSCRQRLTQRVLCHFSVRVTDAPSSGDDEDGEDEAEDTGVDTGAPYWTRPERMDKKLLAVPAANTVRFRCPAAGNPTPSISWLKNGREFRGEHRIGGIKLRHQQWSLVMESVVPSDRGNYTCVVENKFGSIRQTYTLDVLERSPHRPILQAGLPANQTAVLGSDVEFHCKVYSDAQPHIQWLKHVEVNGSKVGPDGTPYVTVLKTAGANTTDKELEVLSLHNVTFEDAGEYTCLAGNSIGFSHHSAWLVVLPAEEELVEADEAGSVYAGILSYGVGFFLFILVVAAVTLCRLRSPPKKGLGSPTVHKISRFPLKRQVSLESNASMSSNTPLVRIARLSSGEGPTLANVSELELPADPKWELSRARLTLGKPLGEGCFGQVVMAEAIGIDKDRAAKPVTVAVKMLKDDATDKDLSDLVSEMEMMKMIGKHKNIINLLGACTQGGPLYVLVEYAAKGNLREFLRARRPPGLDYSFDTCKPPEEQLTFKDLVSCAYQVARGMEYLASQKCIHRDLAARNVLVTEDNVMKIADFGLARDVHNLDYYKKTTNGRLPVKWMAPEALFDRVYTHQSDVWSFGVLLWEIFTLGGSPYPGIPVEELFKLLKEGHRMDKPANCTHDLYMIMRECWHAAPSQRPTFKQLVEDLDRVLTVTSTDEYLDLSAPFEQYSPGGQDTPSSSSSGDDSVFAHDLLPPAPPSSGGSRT
# ASSAY_METHOD_TEXT: phosphorylation enrichment, bacterial display (enrichment ratio); higher = better substrate or ligand; peptides without Tyr show the background
Entries annotated with measured phosphorylation enrichment
// print number alone

[
  {
    "ORDERED_RESIDUES": "DRPASYKKKSM [PDGFRA_Y768]",
    "phosphorylation enrichment": 0.347
  },
  {
    "ORDERED_RESIDUES": "TMETKYDNISR [SETDB2_Y477_V473M]",
    "phosphorylation enrichment": 0.474
  },
  {
    "ORDERED_RESIDUES": "EFNINYNNELP [THG1L_Y228]",
    "phosphorylation enrichment": 0.568
  },
  {
    "ORDERED_RESIDUES": "LKGQVYILGRE [ASS1_Y359]",
    "phosphorylation enrichment": 1.07
  },
  {
    "ORDERED_RESIDUES": "ATHRSYDSDNP [MMUT_Y146_G145S]",
    "phosphorylation enrichment": 0.511
  },
  {
    "ORDERED_RESIDUES": "KKDGPYDVVVL [PARK7_Y67_E64D]",
    "phosphorylation enrichment": 0.602
  }
]

Let me check: PVVKLYATEGR [RP1_Y199_D202E] , system FGFR3 (UniProt P22607), measured phosphorylation enrichment is 0.568

Observed phosphorylation enrichment on FGFR3 (UniProt P22607), entry CTTIHYNYMRN [TP53_Y234_C238R] , equals 0.577

Form field, phosphorylation enrichment with FGFR3 (UniProt P22607), item RNESFYDTFST [EFCAB3_Y372] : 0.915

Entry VNFGAYINDFN [GLB1_Y488_K493N_YF] ; assay system FGFR3 (UniProt P22607); phosphorylation enrichment recorded at 0.708
